- assaySummary: Acute ulcerogenic activity in Sprague-Dawley male rat assessed as average number of ulcers at 50 mg/kg/day, po administered for 3 days
- Type: toxicity, organism-based
- recordedConditions: in vivo, 72 h, time 3 day
propertyLabel: Activity

Q) Could you tell me which Activity is on file for COc1ccc2c(c1)c(CC(=O)O)c(C)n2C(=O)c1ccc(Cl)cc1 [INDOMETHACIN] ?
A) 11.33

Q) Looking for the measured Activity of Cc1ccc(-c2cc(C(F)(F)F)nn2-c2ccc(S(N)(=O)=O)cc2)cc1 [CELECOXIB] , can you help?
A) 0.67

Q) Looking for the measured Activity of COc1ccc(NC(=O)COc2ccc(N3C(=O)CSC3c3ccccc3)cc2)cc1 (stereo not given) , can you help?
A) 0.67

Q) // Activity lookup, key: Cc1ccc(C2SCC(=O)N2c2ccc(OCC(=O)Nc3ccc(F)cc3)cc2)cc1 (stereo not given)
A) 1.67

Q) Recorded Activity for Cc1ccc(C2SCC(=O)N2c2ccc(OCC(=O)Nc3ccc(Cl)cc3)cc2)cc1 (stereo not given) , please?
A) 3.33

----------
- System: HT-29
- assaySummary: Cytotoxicity against human HT-29 cells assessed as inhibition in cell growth incubated for 72 hrs by MTT assay
- Assay type: functional, cell-based
- recordedConditions: HT-29, 72 h
pIC50: −log10 of the molar value.
Classification field: yes = pIC50 at or over 6; no = pIC50 under 6.

Q) Could you please find out whether O=C(COc1ccc(N2C(=O)CSC2c2ccc(Cl)cc2)cc1)Nc1ccc(F)cc1 (stereo unspecified) has pIC50 that meets 6 or exceeds it?
A) yes

Q) Please check the record COc1ccc(NC(=O)COc2ccc(N3C(=O)CSC3c3ccc(C)cc3)cc2)cc1 (stereo unspecified) and state if its pIC50 is at or above 6.
A) no

Q) Evaluate COc1ccc(NC(=O)COc2ccc(N3C(=O)CSC3c3ccccc3)cc2)cc1OC (stereo unspecified) : pIC50 at minimum 6?
A) no

Q) Could you verify whether the entry COc1cc2c(c(OC)c1OC)-c1ccc(OC)c(=O)cc1[C@@H](NC(C)=O)CC2 shows pIC50 of no less than 6?
A) no

----------
- Test system: HT-29
- assaySummary: Cytotoxicity against human HT-29 cells assessed as inhibition in cell growth incubated for 72 hrs by MTT assay
- Format: functional, cell-based
- recordedConditions: HT-29, 72 h
propertyLabel: IC50 (µM)
Give your result in µM as a bare value.

Q) Report IC50 for O=C(COc1ccc(N2C(=O)CSC2c2ccc(Cl)cc2)cc1)Nc1ccc(Cl)cc1 (stereo not given) please.
A) 1.32

Q) Which IC50 reading was recorded for the molecule Cc1ccc(-c2cc(C(F)(F)F)nn2-c2ccc(S(N)(=O)=O)cc2)cc1 ?
A) 32.5

Q) Fill in: IC50 of COc1cc(NC(=O)COc2ccc(N3C(=O)CSC3c3ccccc3)cc2)cc(OC)c1OC (stereo not given) is ___
A) 3.21

Q) Could you share which IC50 value was measured for O=C(COc1ccc(N2C(=O)CSC2c2ccc(Cl)cc2)cc1)Nc1ccccc1 (stereo not given) ?
A) 0.44

Q) // query IC50 value for entry Cc1ccc(C2SCC(=O)N2c2ccc(OCC(=O)Nc3ccc(F)cc3)cc2)cc1 (stereo not given)
A) 0.46

----------
- System: Rattus norvegicus
- assaySummary: Antiinflammatory activity against carrageenan-induced paw edema Sprague-Dawley rat model assessed as inhibition of paw edema by measuring edema thickness at 50 mg/kg, po measured after 5 hrs (reference value: 1.39 +/- 0.11 mm)
- Type: functional
Please provide measured Activity for the entries that follow.
The answer consists of two parts: a number and, after it, its unit.

Q) Look up Activity for this molecule: COc1ccc(NC(=O)COc2ccc(N3C(=O)CSC3c3ccccc3)cc2)cc1 (stereo not drawn)
A) 0.56 mm

Q) Any idea what Activity was measured for COc1ccc(NC(=O)COc2ccc(N3C(=O)CSC3c3ccc(C)cc3)cc2)cc1 (stereo not drawn) ?
A) 0.73 mm

Q) Item COc1ccc2c(c1)c(CC(=O)O)c(C)n2C(=O)c1ccc(Cl)cc1 has what recorded Activity?
A) 0.24 mm

Q) I would be grateful if you could share the reported Activity for Cc1ccc(NC(=O)COc2ccc(N3C(=O)CSC3c3ccccc3)cc2)cc1 (stereo not drawn) .
A) 0.69 mm

Q) So what does the record say about Activity for O=C(COc1ccc(N2C(=O)CSC2c2ccccc2)cc1)Nc1ccc(Cl)cc1 (stereo not drawn) ?
A) 0.53 mm

Q) Fill in the blank: the reported Activity of Cc1ccc(C2SCC(=O)N2c2ccc(OCC(=O)Nc3ccc(Cl)cc3)cc2)cc1 (stereo not drawn) is ____.
A) 0.73 mm

Q) State the recorded Activity for this entry: Cc1ccc(-c2cc(C(F)(F)F)nn2-c2ccc(S(N)(=O)=O)cc2)cc1
A) 0.5 mm

Q) State the recorded Activity for this entry: Cc1ccc(C2SCC(=O)N2c2ccc(OCC(=O)Nc3ccc(F)cc3)cc2)cc1 (stereo not drawn)
A) 0.57 mm

----------
- Tested on: PC-3
- assaySummary: Cytotoxicity against human PC-3 cells assessed as inhibition in cell growth
- Assay type: functional, cell-based
propertyLabel: pIC50
Units for pIC50: none; it is -log10 of a concentration expressed in mol/L.

Q) Form field - read-out: pIC50; system: PC-3; submitted item: CC(=O)c1ccc(NC(=O)COc2ccc(C3SCC(=O)N3c3ccccc3)cc2)cc1 (stereo unspecified)
A) 4.74

----------
Kindly supply the reported Activity values for the records listed here.
- Test system: Rattus norvegicus
- assaySummary: Antiinflammatory activity against carrageenan-induced paw edema Sprague-Dawley rat model assessed as inhibition of inflammation at 50 mg/kg, po after 5 hrs relative to control
- Type: functional
- Set-up: scale not given: the % may be the effect or the level left
Give just the numeric value; % need not be written.

Q) What does the data say about its Activity? Entry: Cc1ccc(C2SCC(=O)N2c2ccc(OCC(=O)Nc3ccc(F)cc3)cc2)cc1 (configuration not stated)
A) 58.99

Q) What value of Activity has been recorded for this entry: COc1ccc(NC(=O)COc2ccc(N3C(=O)CSC3c3ccc(C)cc3)cc2)cc1 (configuration not stated)
A) 47.48

Q) # Activity lookup, item Cc1ccc(C2SCC(=O)N2c2ccc(OCC(=O)Nc3ccc(Cl)cc3)cc2)cc1 (configuration not stated)
A) 47.48

Q) Tell me the measured Activity of Cc1ccc(NC(=O)COc2ccc(N3C(=O)CSC3c3ccccc3)cc2)cc1 (configuration not stated) , please.
A) 47.48

Q) Would you kindly share the measured Activity for Cc1ccc(-c2cc(C(F)(F)F)nn2-c2ccc(S(N)(=O)=O)cc2)cc1 ?
A) 64.03

Q) Value lookup for Activity; key = O=C(COc1ccc(N2C(=O)CSC2c2ccccc2)cc1)Nc1ccc(Cl)cc1 (configuration not stated)
A) 47.48

Q) Can you share its Activity? I mean this molecule: COc1ccc(NC(=O)COc2ccc(N3C(=O)CSC3c3ccccc3)cc2)cc1 (configuration not stated)
A) 59.7

----------
- assaySummary: Selectivity index, ratio of IC50 for cytotoxicity against human MRC5 cells to IC50 for cytotoxicity against human A2780 cells
- recordedConditions: MRC5 cells versus A2780 cells
propertyLabel: selectivity ratio at 72 h
// return a plain number; no unit text

Q) Need selectivity ratio at 72 h, item COc1ccc(NC(=O)COc2ccc(N3C(=O)CSC3c3ccc(C)cc3)cc2)cc1 (stereo not given)
A) 0.61

Q) Param item = Cc1ccc(NC(=O)COc2ccc(N3C(=O)CSC3c3ccc(Cl)cc3)cc2)cc1 (stereo not given) ; retrieve measured selectivity ratio at 72 h.
A) 1.94

Q) Record request: selectivity ratio at 72 h value, item COc1ccc(NC(=O)COc2ccc(N3C(=O)CSC3c3ccc(Cl)cc3)cc2)cc1 (stereo not given)
A) 0.78

Q) Recorded selectivity ratio at 72 h for O=C(COc1ccc(N2C(=O)CSC2c2ccc(Cl)cc2)cc1)Nc1ccc(Cl)cc1 (stereo not given) , please?
A) 0.84

Q) What value of selectivity ratio at 72 h has been reported for the following molecule? Cc1ccc(C2SCC(=O)N2c2ccc(OCC(=O)Nc3ccc(F)cc3)cc2)cc1 (stereo not given)
A) 0.23

----------
- assaySummary: Selectivity index, ratio of IC50 for cytotoxicity against human MRC5 cells to IC50 for cytotoxicity against human A2780 cells
- recordedConditions: MRC5 cells versus A2780 cells
I'd appreciate it if you could supply selectivity ratio at 72 h values for the items below.
Reply with the value as a number alone.

Q) Look up selectivity ratio at 72 h: Cc1ccc(C2SCC(=O)N2c2ccc(OCC(=O)Nc3ccccc3)cc2)cc1 (configuration not stated)
A) 0.32

Q) Look up selectivity ratio at 72 h: COc1ccc(NC(=O)COc2ccc(N3C(=O)CSC3c3ccccc3)cc2)cc1 (configuration not stated)
A) 9.3

Q) Fill blank: measured selectivity ratio at 72 h of the compound O=C(COc1ccc(N2C(=O)CSC2c2ccccc2)cc1)Nc1ccc(F)cc1 (configuration not stated) is ____.
A) 2.53

Q) Endpoint output: selectivity ratio at 72 h of O=C(COc1ccc(N2C(=O)CSC2c2ccc(Cl)cc2)cc1)Nc1ccccc1 (configuration not stated) . Value?
A) 0.57

Q) Bench note: what selectivity ratio at 72 h did Cc1ccc(NC(=O)COc2ccc(N3C(=O)CSC3c3ccc(C)cc3)cc2)cc1 (configuration not stated) show?
A) 1.1

Q) Data request, read-out selectivity ratio at 72 h, for O=C(COc1ccc(N2C(=O)CSC2c2ccccc2)cc1)Nc1ccc(Cl)cc1 (configuration not stated)
A) 0.63

Q) Form field: reported selectivity ratio at 72 h of O=C(COc1ccc(N2C(=O)CSC2c2ccc(Cl)cc2)cc1)Nc1ccc(F)cc1 (configuration not stated)
A) 0.79

Q) # selectivity ratio at 72 h lookup, item COc1cc(NC(=O)COc2ccc(N3C(=O)CSC3c3ccccc3)cc2)cc(OC)c1OC (configuration not stated)
A) 4.69

Q) Can you look up the measured selectivity ratio at 72 h of Cc1ccc(C2SCC(=O)N2c2ccc(OCC(=O)Nc3ccc(Cl)cc3)cc2)cc1 (configuration not stated) for me?
A) 2.61

Q) Which selectivity ratio at 72 h value is on record for COc1ccc(NC(=O)COc2ccc(N3C(=O)CSC3c3ccccc3)cc2)cc1OC (configuration not stated) ?
A) 5.76

Q) I have this compound here, Cc1ccc(NC(=O)COc2ccc(N3C(=O)CSC3c3ccccc3)cc2)cc1 (configuration not stated) , and I need its recorded selectivity ratio at 72 h.
A) 1.75

Q) Dear colleague, I am looking for the recorded selectivity ratio at 72 h of the following compound: O=C(COc1ccc(N2C(=O)CSC2c2ccccc2)cc1)Nc1ccccc1 (configuration not stated)
A) 0.52
